Test system: Pseudomonas aeruginosa
Test: Antimicrobial activity against Pseudomonas aeruginosa KCTC 1637 after 16 hrs by broth microdilution assay
Format: functional
Conditions: KCTC 1637, 16 h
The reader will find reported MIC values listed item by item below.

Molecule Smiles: COc1ccc(O)c(/C=N/NCc2cccc(C(F)(F)F)c2)c1
MIC: > 32 µg/mL

Molecule Smiles: COc1ccc(/C=N/NCc2ccc(C)cc2)c(O)c1
MIC: > 32 µg/mL

Molecule Smiles: Oc1ccc(/C=N/NCc2ccc(C(F)(F)F)cc2)c(O)c1
MIC: > 32 µg/mL

Molecule Smiles: CCCOc1ccc(/C=N/NCc2ccc3ccccc3c2)c(O)c1
MIC: > 32 µg/mL

Molecule Smiles: COc1ccccc1/C=N/NCc1ccc(C(=O)O)cc1
MIC: > 32 µg/mL

Molecule Smiles: CCCOc1ccc(/C=N/NCc2ccc(C(F)(F)F)cc2)c(O)c1
MIC: > 32 µg/mL

Molecule Smiles: Oc1ccc(/C=N/NCc2cccc(C(F)(F)F)c2)cc1
MIC: 32 µg/mL

Molecule Smiles: CCOc1ccc(/C=N/NCc2ccc(Cl)c(Cl)c2)c(O)c1
MIC: > 32 µg/mL

Molecule Smiles: COc1ccc(/C=N/NCc2ccc(C(=O)O)cc2)c(OC)c1
MIC: > 32 µg/mL

Molecule Smiles: Cc1ccc(/C=N/NCc2ccc(O)cc2O)cc1Cl
MIC: 4 µg/mL

Molecule Smiles: Oc1cccc(Br)c1/C=N/NCc1cccc(C(F)(F)F)c1
MIC: > 32 µg/mL

Molecule Smiles: COc1ccc(/C=N/NCc2ccc(C(F)(F)F)cc2)c(O)c1
MIC: > 32 µg/mL

* * *

Tested on: Acinetobacter baumannii
Assay: Antimicrobial activity against multidrug resistant Acinetobacter baumannii CCARM 12005 after 16 hrs by broth microdilution assay
Type: functional
Conditions: CCARM 12005, 16 h

Molecule Smiles: Oc1ccc(/C=N/NCc2ccc(C(F)(F)F)cc2)c(O)c1
MIC: 8 mg/L

Molecule Smiles: CCCOc1ccc(/C=N/NCc2ccc3ccccc3c2)c(O)c1
MIC: > 32 mg/L

Molecule Smiles: COc1ccc(/C=N/NCc2ccc(C(F)(F)F)cc2)c(O)c1
MIC: > 32 mg/L

Molecule Smiles: COc1ccccc1/C=N/NCc1ccc(C(=O)O)cc1
MIC: > 32 mg/L

Molecule Smiles: Oc1cccc(Br)c1/C=N/NCc1cccc(C(F)(F)F)c1
MIC: > 32 mg/L

Molecule Smiles: COc1ccc(O)c(/C=N/NCc2cccc(C(F)(F)F)c2)c1
MIC: > 32 mg/L

Molecule Smiles: COc1ccc(/C=N/NCc2ccc(C(=O)O)cc2)c(OC)c1
MIC: > 32 mg/L

Molecule Smiles: CCCOc1ccc(/C=N/NCc2ccc(C(F)(F)F)cc2)c(O)c1
MIC: > 32 mg/L

Molecule Smiles: Oc1ccc(/C=N/NCc2cccc(C(F)(F)F)c2)cc1
MIC: 16 mg/L

Molecule Smiles: Cc1ccc(/C=N/NCc2ccc(O)cc2O)cc1Cl
MIC: 4 mg/L

Molecule Smiles: CCOc1ccc(/C=N/NCc2ccc(Cl)c(Cl)c2)c(O)c1
MIC: > 32 mg/L

Molecule Smiles: COc1ccc(/C=N/NCc2ccc(C)cc2)c(O)c1
MIC: > 32 mg/L

* * *

System: Staphylococcus epidermidis
Experiment: Antimicrobial activity against Staphylococcus epidermidis after 16 hrs by broth microdilution assay
Type: functional
The reader will find reported MIC values listed item by item below.
Experimental Readout: MIC

Molecule Smiles: COc1ccccc1/C=N/NCc1ccc(C(=O)O)cc1
Experimental Value: > 32 µg/mL

Molecule Smiles: COc1ccc(O)c(/C=N/NCc2cccc(C(F)(F)F)c2)c1
Experimental Value: > 32 µg/mL

Molecule Smiles: Oc1cccc(Br)c1/C=N/NCc1cccc(C(F)(F)F)c1
Experimental Value: > 32 µg/mL

Molecule Smiles: Oc1ccc(/C=N/NCc2cccc(C(F)(F)F)c2)cc1
Experimental Value: 32 µg/mL

Molecule Smiles: COc1ccc(/C=N/NCc2ccc(C(F)(F)F)cc2)c(O)c1
Experimental Value: > 32 µg/mL

Molecule Smiles: CCCOc1ccc(/C=N/NCc2ccc(C(F)(F)F)cc2)c(O)c1
Experimental Value: > 32 µg/mL

Molecule Smiles: CCOc1ccc(/C=N/NCc2ccc(Cl)c(Cl)c2)c(O)c1
Experimental Value: > 32 µg/mL

Molecule Smiles: CCCOc1ccc(/C=N/NCc2ccc3ccccc3c2)c(O)c1
Experimental Value: > 32 µg/mL

Molecule Smiles: COc1ccc(/C=N/NCc2ccc(C(=O)O)cc2)c(OC)c1
Experimental Value: > 32 µg/mL

Molecule Smiles: COc1ccc(/C=N/NCc2ccc(C)cc2)c(O)c1
Experimental Value: > 32 µg/mL

Molecule Smiles: Oc1ccc(/C=N/NCc2ccc(C(F)(F)F)cc2)c(O)c1
Experimental Value: 16 µg/mL

Molecule Smiles: Cc1ccc(/C=N/NCc2ccc(O)cc2O)cc1Cl
Experimental Value: 8 µg/mL
